ABUTH (Abutilon theophrasti) damage score values for the compounds below.
Tested on: a variety of test species
Method: Post-emergence herbicidal activity
Type: in vivo
Design: key: 0 = no damage to plant, 5 = total damage to plant
Condition details: rate 1000 g/ha, evaluated after 13 days
Readout name: ABUTH (Abutilon theophrasti) damage score

[[record]]
compound = "COC1=C(C)C(=O)N(c2cc(C(F)(F)F)c(/C(C)=C\\C#N)cn2)C1O (centres unmarked) [AD58]"
recorded_value = 5

[[record]]
compound = "C=CCOc1nnc(N2C(=O)C(C)=C(OC)C2O)cc1C(C)C (centres unmarked) [BD6]"
recorded_value = 1

[[record]]
compound = "CC1=C(OCC(F)(F)F)C(O)N(c2cc(C(F)(F)F)ccn2)C1=O (centres unmarked) [AD44]"
recorded_value = 5

[[record]]
compound = "CCCC1=C(Cl)C(O)N(c2cc(C(C)(C)C#N)ncn2)C1=O (centres unmarked) [CA4]"
recorded_value = 2

[[record]]
compound = "COC1=C(C)C(=O)N(c2cc(C(F)(F)F)c(C#C[Si](C)(C)C)cn2)C1O (centres unmarked) [AD15]"
recorded_value = 3

[[record]]
compound = "COc1nnc(N2C(=O)C(C)=C(Br)C2O)cc1C (centres unmarked) [BB1]"
recorded_value = 1

[[record]]
compound = "COC1=C(C)C(=O)N(c2cc(C)c(-c3cc(F)c(F)c(F)c3)cn2)C1O (centres unmarked) [AD114]"
recorded_value = 4

[[record]]
compound = "COC1=C(C)C(=O)N(c2cc(N(C)C)ncn2)C1O (racemic) [CD7]"
recorded_value = 2

[[record]]
compound = "COC1=C(C)C(=O)N(c2cc(C(F)(F)F)c(OCCCF)cn2)C1O (centres unmarked) [AD79]"
recorded_value = 5

[[record]]
compound = "COC1=C(C)C(=O)N(c2cc(C(F)(F)F)c(-c3ccoc3)cn2)C1O (centres unmarked) [AD124]"
recorded_value = 2

[[record]]
compound = "CCN(CC)C(=O)c1cnc(N2C(=O)C(C)=C(OC)C2O)cc1C(F)(F)F (centres unmarked) [AD92]"
recorded_value = 5

[[record]]
compound = "CC1=C(Br)C(O)N(c2cc(C(F)(F)F)ncn2)C1=O (centres unmarked) [CB1]"
recorded_value = 1

[[record]]
compound = "CCc1cc(N2C(=O)C(C)=C(OC)C2O)ncc1-c1ccccc1C (centres unmarked) [AD107]"
recorded_value = 5

[[record]]
compound = "COC1=C(C)C(=O)N(c2cc(C(F)(F)F)c(Br)cn2)C1O (centres unmarked) [AD31]"
recorded_value = 5

[[record]]
compound = "CC1=C(Cl)C(O)N(c2cc(C(C)C)c(C(=O)OC(C)C)cn2)C1=O (centres unmarked) [AA9]"
recorded_value = 4

[[record]]
compound = "COC1=C(C)C(=O)N(c2ccc(Cl)nn2)C1O (centres unmarked) [BD3]"
recorded_value = 1

[[record]]
compound = "COC1=C(C)C(=O)N(c2cc(C(F)(F)F)c(OCc3ccccc3)cn2)C1O (centres unmarked) [AD82]"
recorded_value = 4

[[record]]
compound = "CC1=C(Cl)C(O)N(c2cc(C)c(Br)cn2)C1=O (centres unmarked) [AA10]"
recorded_value = 0

[[record]]
compound = "COC1=C(C)C(=O)N(c2cc(C)c(-c3ccccc3OC)cn2)C1O (centres unmarked) [AD110]"
recorded_value = 5

[[record]]
compound = "COC1=C(C)C(=O)N(c2cc(C(F)(F)F)c(-c3ccc(F)cc3)cn2)C1O (centres unmarked) [AD59]"
recorded_value = 5

